B1: KRT18 (parent)
chain: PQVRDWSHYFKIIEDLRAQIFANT

Variants of: B1
Test: protein stability index of a GFP-peptide fusion (GPS, HEK-293T) (PSI 1-6); higher = more stable;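 further: lentivirally expressed fusions sorted by FACS into six bins by GFP to DsRed ratio, PSI derived from sequencing read proportions per bin multiplied by bin number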
Conditions: c terminus: a fixed tail appended
Threshold rule: protein stability index greater than or equal to 2 is yes; below that, no.

// below: answered variants
| Mutant Name | Label |
| --- | --- |
| P1E | yes |
| F10K | no |
| F21M | yes |
| Q2W | no |
| P1I | yes |

Say whether R17T shows protein stability index of 2 or more.
yes

Please answer likewise for W6S
yes

Next up: D5E
yes
